B1: Pistol ribozyme (parent)
chain: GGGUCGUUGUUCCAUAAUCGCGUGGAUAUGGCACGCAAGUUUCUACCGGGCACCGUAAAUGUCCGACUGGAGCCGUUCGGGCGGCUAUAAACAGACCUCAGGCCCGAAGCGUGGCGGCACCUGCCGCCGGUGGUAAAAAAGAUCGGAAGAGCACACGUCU

- Variants of: B1
- test: aptazyme ON/OFF ratio, guanine; higher = stronger switching; co-transcriptional cleavage with and without guanine
quantity-kind: aptazyme ON/OFF ratio

1) U7G U8C G9A U10A U11C C12A C13A :: 1.13
2) U7G U10A U11G C13G :: 1.14
3) U7C U8G G9A U10G U11C C12A :: 1.41
4) U8C G9U U10A C12G C13A :: 1.27
5) U7C U8G U10C C12G C13A :: 1.11
6) U7A U8C G9C U10G U11G C12U C13G :: 1.1
7) U7G U8C G9U U10A U11A C12G :: 1.6
8) U7C U8G G9U U11A :: 1.58
9) U8A G9C C13A :: 1.11
10) U7C U8C G9C U10A C13A :: 1.16
11) U7A U8A G9A U10G U11G C12U C13G :: 1.31
12) U7G U8C U11G C13U :: 1.17
13) U7G U8G G9A U10A C13A :: 1.28
14) U7C U8G G9A U10A U11A :: 1.31
15) U7G U8A G9C U10C U11A C12G C13U :: 1.09
16) U7G U8G G9A U10C U11G C12A C13G :: 1.14
17) U7C U8A G9A U10G U11G C12G :: 1.29
18) U7A U8G G9C U10A U11G C12U :: 1.08
19) U7A U8A G9U U11C C13A :: 1.11
20) U7C U8A G9U U10C U11G C12G C13A :: 1.16
21) U7C U10A U11G C12U C13U :: 1.5
22) U7A G9A U10C U11G C12A C13A :: 1.18
23) U8A U10A C12U C13G :: 1.13
24) U7C U8A G9A U10A U11A C12A :: 1.2
25) U7A U8C G9A U10A C13U :: 1.2
26) U8C G9U U10C U11A :: 1.44
27) U8C G9A U10G U11C C12G C13A :: 1.18
28) U8C G9U U10G U11C C13G :: 1.04
29) U7G U10A U11A C13U :: 1.11
30) U8A G9U U10C U11G C12G C13A :: 1.15
31) U7A U8G G9C U10A U11C C12A :: 1.29
32) U7G U8A G9C U11C C12A C13U :: 1.06
33) U7C U8C G9C U10C U11A C12U C13A :: 1.08
34) U7G U8A U10A C12U C13U :: 1.09
35) U7A U8G U10C U11C C12G :: 1.42
36) U7C U8A G9U U10C C12G :: 1.22
37) U8C U11C C12U C13A :: 1.19
